- target.or.test.system: human DGKζ (Homo sapiens, UniProt Q13574)
- Construct: TVMV protease cleavage site (C); Hexa-His (C); made in house; host or cells: Sf9 insect cells (baculovirus, Bac-to-Bac)
- Sequence (Q13574 with tags, fused parts or gaps isoform Q13574-4): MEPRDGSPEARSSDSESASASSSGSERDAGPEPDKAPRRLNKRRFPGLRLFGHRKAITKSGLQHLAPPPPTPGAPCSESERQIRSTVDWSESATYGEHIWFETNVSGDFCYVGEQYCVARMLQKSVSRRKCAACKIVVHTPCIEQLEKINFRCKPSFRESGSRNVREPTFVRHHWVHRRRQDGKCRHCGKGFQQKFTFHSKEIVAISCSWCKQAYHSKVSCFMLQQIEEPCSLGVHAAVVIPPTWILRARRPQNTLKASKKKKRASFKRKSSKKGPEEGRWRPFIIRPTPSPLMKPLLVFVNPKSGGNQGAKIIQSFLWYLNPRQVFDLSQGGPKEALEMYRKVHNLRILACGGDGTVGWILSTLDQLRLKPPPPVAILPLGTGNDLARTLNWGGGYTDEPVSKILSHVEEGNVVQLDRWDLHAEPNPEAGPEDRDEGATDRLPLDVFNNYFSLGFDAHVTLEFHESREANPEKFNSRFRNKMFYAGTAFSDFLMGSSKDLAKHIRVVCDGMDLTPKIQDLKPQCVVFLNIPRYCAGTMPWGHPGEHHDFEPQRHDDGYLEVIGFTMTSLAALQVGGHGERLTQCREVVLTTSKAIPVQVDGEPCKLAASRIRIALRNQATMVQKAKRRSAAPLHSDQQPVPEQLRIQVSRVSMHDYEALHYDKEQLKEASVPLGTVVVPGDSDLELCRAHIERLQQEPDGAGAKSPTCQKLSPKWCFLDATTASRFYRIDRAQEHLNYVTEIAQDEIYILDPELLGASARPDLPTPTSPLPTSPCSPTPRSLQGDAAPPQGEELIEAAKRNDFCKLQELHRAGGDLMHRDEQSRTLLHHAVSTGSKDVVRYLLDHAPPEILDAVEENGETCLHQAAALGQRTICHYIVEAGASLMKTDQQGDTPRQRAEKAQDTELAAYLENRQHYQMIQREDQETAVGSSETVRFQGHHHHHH
- assay.summary: DGKζ LIPGLO assay (extruded liposome substrate), in vitro DGK inhibition
- Type: biochemical
- measurement.setup: liposome (LIPGLO) assay; read-out: DGKz LIPGLO IC50
Consider the following molecules; for each one, report its pIC50.
Lab note — pIC50 values are minus log10 of concentrations in M.

// lookup pIC50 for Cn1c(=O)cc(N2CCN(C(c3ccc(F)cc3)c3ccc(F)cc3)CC2C(N)=O)c2nc(C#N)ccc21 (single isomer, unassigned) [Example 141]
3.70

Ok, now CC(c1ccc(OC(F)F)cn1)N1C[C@H](C)N(c2cc(=O)n(C)c3ccc(C#N)nc23)C[C@H]1C (stereo partly shown) [Example 653]
5.96

Moving on to the next molecule: C[C@@H]1CN(c2cc(=O)n(C)c3ccc(C#N)nc23)[C@@H](C)CN1C(c1ccc(F)c(F)c1)c1ccccn1 (mixture of isomers) [Example 366]
5.70

Now consider C[C@@H]1CN(c2c(C#N)c(=O)n(C)c3ccc(C#N)nc23)CCN1C(c1ccc(F)cc1)c1nc(C2CC2)no1 (single isomer, unassigned) [Example 1029] and answer again.
5.68

Subsequent entry: `C[C@@H]1CN(c2c(C#N)c(=O)n(C)c3ccc(Br)nc23)[C@@H](C)CN1C(c1ccc(F)cc1)c1ccc(F)cc1`
4.89

Please do the same for C[C@@H]1CN(c2c(F)c(=O)n(C)c3ccc(C#N)nc23)[C@@H](C)CN1C(c1ccc(F)cc1)c1cccc(F)c1 (single isomer, unassigned) [Example 330] as well.
6.30

Moving on to C[C@@H]1CN(c2cc(=O)n(C)c3ccc(C#N)nc23)[C@@H](C)CN1C(c1cccc(F)c1)c1ccccn1 (single isomer, unassigned) [Example 379]
5.68

// repeat for Cn1c(=O)cc(N2CCN(C(c3ccc(F)cc3)c3ccc(F)cc3)CC2CF)c2nc(C#N)ccc21 (racemic) [Example 149] and report
4.68

Could you do the same for `C[C@@H]1CN(c2cc(=O)n(C)c3ccc(C#N)nc23)[C@@H](C)CN1Cc1ccc(F)cc1C(F)F` , please?
6.01

# iterate: `C[C@@H]1CN(c2cc(=O)n(C)c3ccc(C#N)nc23)[C@@H](C)CN1Cc1coc(-c2cccs2)n1`
6.02

Same read-out for C[C@@H]1CN(c2cc(=O)n(C)c3ccc(C#N)nc23)[C@@H](C)CN1C(c1ccc(OC(F)(F)F)cc1F)C1CC1 (single isomer, unassigned) [Example 480] ?
5.74

# iterate: CC(c1cccc(C(F)F)n1)N1C[C@H](C)N(c2cc(=O)n(C)c3ccc(C#N)nc23)C[C@H]1C (stereo partly shown) [Example 1222]
6.96

Next: [2H]C(C)(c1ccc(F)cc1)N1C[C@H](C)N(c2c(F)c(=O)n(C)c3ccc(C#N)nc23)C[C@H]1C (single isomer, unassigned) [Example 424]
4.43

---

- System: Human venous whole blood
- assay.summary: Human whole blood IFN-γ assay;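 note: blood from healthy donors exposed to compound for 1 h before stimulation with anti-CD3 and anti-CD28 at 1 µg/mL each, IFN-γ quantified in supernatant by AlphaLISA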
- Format: cell-based
- measurement.setup: Homo sapiens, 24 h, human whole blood, anti-CD3 plus anti-CD28, 24 hours; 3 μM reference compound = 100% activation; read-out: INFg Whole Blood Normalized Agonist EC50
value.kind: EC50 (µM)
Expressed in µM, but write only the number.

Which EC50 value is on record for `C[C@@H]1CN(c2c(C#N)c(=O)n(C)c3ccc(C#N)nc23)CCN1Cc1cccc(-c2ccccc2)c1` ?
3.5

Now the compound C[C@@H]1CN(c2c(C#N)c(=O)n(C)c3ccc(C#N)nc23)CCN1C(c1ccc(Cl)cc1)c1ccc(Cl)cn1 (stereo partly drawn)
1.3

// next record C[C@@H]1CN(c2c(C#N)c(=O)n(C)c3ccc(C#N)nc23)[C@@H](C)CN1C(c1ccc(F)cc1)c1cscn1 (single isomer, unassigned)
1.4

---

- target.or.test.system: human DGKα (Homo sapiens, UniProt P23743)
- Construct: TVMV protease cleavage site (C); Hexa-His (C); made in house; host or cells: Sf9 insect cells (baculovirus, Bac-to-Bac)
- Sequence (P23743 with tags, fused parts or gaps): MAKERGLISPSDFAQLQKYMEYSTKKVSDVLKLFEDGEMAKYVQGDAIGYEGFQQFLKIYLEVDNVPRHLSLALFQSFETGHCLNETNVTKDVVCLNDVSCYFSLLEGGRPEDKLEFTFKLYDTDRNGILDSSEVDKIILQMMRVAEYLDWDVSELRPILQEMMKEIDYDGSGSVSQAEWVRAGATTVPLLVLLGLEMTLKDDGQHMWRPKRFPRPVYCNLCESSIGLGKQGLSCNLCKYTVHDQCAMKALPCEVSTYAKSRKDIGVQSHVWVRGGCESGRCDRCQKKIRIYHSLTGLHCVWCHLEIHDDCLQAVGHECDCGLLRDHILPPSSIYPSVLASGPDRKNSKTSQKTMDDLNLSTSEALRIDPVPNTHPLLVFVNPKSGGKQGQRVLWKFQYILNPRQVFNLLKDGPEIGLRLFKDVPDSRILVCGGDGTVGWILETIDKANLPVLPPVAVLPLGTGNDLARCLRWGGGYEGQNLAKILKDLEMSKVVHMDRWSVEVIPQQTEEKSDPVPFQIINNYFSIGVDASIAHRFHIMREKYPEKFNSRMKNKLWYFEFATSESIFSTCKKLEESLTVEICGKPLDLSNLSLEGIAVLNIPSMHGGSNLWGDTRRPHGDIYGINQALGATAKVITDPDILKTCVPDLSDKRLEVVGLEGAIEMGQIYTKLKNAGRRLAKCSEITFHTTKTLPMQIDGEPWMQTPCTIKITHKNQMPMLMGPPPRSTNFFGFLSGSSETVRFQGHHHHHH
- assay.summary: DGKα LIPGLO assay (extruded liposome substrate), in vitro DGK inhibition
- Type: biochemical
- measurement.setup: liposome (LIPGLO) assay; read-out: DGKa LIPGLO IC50
pIC50: −log10 of the molar value.
Criterion: pIC50 meeting or surpassing 6. Met: fulfilled. Not met: not fulfilled.

Given the entry CC(c1cccc(OC(F)F)c1)N1C[C@H](C)N(c2cc(=O)n(C)c3ccc(C#N)nc23)C[C@H]1C (single isomer, unassigned) [Example 1271] , answer whether its pIC50 meets or surpasses 6.
fulfilled

Try the compound CC(c1ccc(OC(F)(F)F)cc1)N1C[C@H](C)N(c2cc(=O)n(C)c3ccc(C#N)nc23)C[C@H]1CN1CCOCC1 (single isomer, unassigned) [Example 1415]
not fulfilled

Now this one: Cn1c(=O)c(Cl)c(N2CCN(C(c3ccc(F)cc3)c3ccc(F)cc3)C(CO)C2)c2nc(C#N)ccc21 (single isomer, unassigned) [Example 101]
not fulfilled

Also `Cn1c(=O)cc(N2CCN(C(c3ccc(F)cc3)c3ccc(F)cc3)C(C)(C)C2)c2nc(C#N)ccc21` ?
fulfilled

---

- target.or.test.system: human DGKα (Homo sapiens, UniProt P23743)
- Construct: TVMV protease cleavage site (C); Hexa-His (C); made in house; host or cells: Sf9 insect cells (baculovirus, Bac-to-Bac)
- assay.summary: DGKα LIPGLO assay (extruded liposome substrate), in vitro DGK inhibition
- Type: biochemical
- measurement.setup: liposome (LIPGLO) assay; read-out: DGKa LIPGLO IC50
pIC50: −log10 of the molar value.
Label not met if pIC50 falls below 6; label met in every other case.

Test whether the compound CC(c1cccc2c1OC(F)(F)O2)N1C[C@H](C)N(c2cc(=O)n(C)c3ccc(C#N)nc23)C[C@H]1C (single isomer, unassigned) [Example 1217] records pIC50 of 6 or higher.
not met

Same read-out for CCc1cc(F)ccc1C(c1ccc(F)cc1)N1C[C@H](C)N(c2cc(=O)n(C)c3ccc(C#N)nc23)C[C@H]1C (single isomer, unassigned) [Example 227] ?
not met

Now the compound COc1ccc2c(n1)c(N1C[C@@H](C)N(C(c3ccccc3)c3ccc(F)cc3)C[C@@H]1C)cc(=O)n2C (single isomer, unassigned) [Example 238]
not met

Field entry: C[C@@H]1CN(c2cc(=O)n(C)c3ccc(C#N)nc23)[C@@H](C)CN1Cc1ccc(Cl)cc1O [Example 244]
met

Cool, now C[C@@H]1CN(c2cc(=O)n(C)c3ccc(C#N)nc23)[C@@H](C)CN1C(c1ccc(F)cc1)c1cc(F)ccn1 (single isomer, unassigned) [Example 473]
not met

Repeat with C[C@@H]1CN(c2c(Cl)c(=O)n(C)c3ccc(C#N)nc23)[C@@H](C)CN1C(c1ccc(Cl)cc1)c1ccc(Cl)cc1 [Example 26]
not met

Another compound to look at: COCc1cc(F)ccc1C(C)N1C[C@H](C)N(c2cc(=O)n(C)c3ccc(C#N)nc23)C[C@H]1C (single isomer, unassigned) [Example 1315]
not met

Same lookup for COC(=O)C1CN(c2c(F)c(=O)n(C)c3ccc(C#N)nc23)CCN1C(c1ccc(F)cc1)c1ccc(F)cc1 (single isomer, unassigned) [Example 74] , please.
not met

Next compound: C[C@@H]1CN(c2cc(=O)n(C)c3ccc(C#N)nc23)[C@@H](C)CN1C(c1ccc(F)cc1)c1ccc(C#N)cc1 (single isomer, unassigned) [Example 307]
met

One more compound: C[C@@H]1CN(c2cc(=O)n(C)c3ccc(C#N)nc23)[C@@H](C)CN1C(c1ccc(F)cc1)C1CCCCO1 (single isomer, unassigned) [Example 358]
not met

Repeat for the following compound: C[C@@H]1CN(c2cc(=O)n(C)c3ccc(C#N)nc23)[C@@H](C)CN1C(c1ccc(OC(F)(F)F)cc1)c1ccccn1 (some centres unmarked) [Example 405]
met

Next compound: CC(c1ccc(P(C)(C)=O)cc1)N1C[C@H](C)N(c2c(C#N)c(=O)n(C)c3ccc(C#N)nc23)C[C@H]1C (single isomer, unassigned) [Example 1295]
not met

Also check C[C@@H]1CN(c2cc(=O)n(C)c3ccc(C#N)nc23)[C@@H](C)CN1C(c1ccc(F)cc1)c1cccc2c1OC(F)(F)O2 (some centres unmarked) [Example 669]
not met

Also, Cn1c(=O)cc(N2CCN(Cc3ccc(F)cc3Cl)C(COC(F)F)C2)c2nc(C#N)ccc21 (single isomer, unassigned) [Example 1184] please.
not met

Same for CC[C@H]1CN(C(c2ccc(Cl)cc2)c2ccc(F)cn2)[C@H](C)CN1c1cc(=O)n(C)c2ccc(C#N)nc12 (single isomer, unassigned) [Example 1129]
met

Subsequent entry: C[C@H]1CN(C(c2ccc(F)cc2)c2ccc(F)cc2)[C@H](CN2CCOCC2)CN1c1cc(=O)n(C)c2ccc(C#N)nc12 [Example 1167]
not met

What do you have for CC[C@@H]1CN(c2cc(=O)n(C)c3ccc(C#N)nc23)[C@@H](C)CN1C(C)c1ccc(F)cc1F (single isomer, unassigned) [Example 1087] ?
met
